# Measured Target: T1, FMC63 IgG
# T1 construct: biotinylated in the flow cytometry assays; also called FMC63 IgG antibody; biotinylated FMC63 IgG
# T1 sequence (VH, as listed by the source, chain 1 of 2): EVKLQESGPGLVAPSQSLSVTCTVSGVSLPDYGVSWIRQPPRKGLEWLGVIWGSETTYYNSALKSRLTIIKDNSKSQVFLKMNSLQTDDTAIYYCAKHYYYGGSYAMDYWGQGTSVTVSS
# T1 sequence (VL, as listed by the source, chain 2 of 2): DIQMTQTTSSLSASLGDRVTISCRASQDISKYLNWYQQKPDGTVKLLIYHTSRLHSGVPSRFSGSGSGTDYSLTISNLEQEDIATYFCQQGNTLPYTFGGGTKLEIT
# Test Protocol: flow cytometry (MFI), yeast clone titrated with 0.01-1000 nM biotinylated FMC63 IgG; yeast-displayed clone, FACS titration 0.01-1000 nM biotinylated FMC63 IgG
Endpoint Label: Kd

Requested field: Kd. Item: RHCPWNCSLL [FMC63 Mimotope (A1), yeast-displayed]
> 1 µM
